Origin of measurements: PubChem BioAssay (NCATS)

System: SKOV3
assay-explanation: Primary qHTS to identify gynecologic anti-cancer compounds using libraries of approved drugs and bioactive compounds (AID 1345084); also: % is scaled to controls: 0 for no effect and ±100 for the full control effect; nearly all actives have a fitted effect of over 55% in size
run-conditions: Gynecologic cancer cell panel viability, ATPlite luminescence, 48 h; series mostly up to 57.5 µM
Records with an inconclusive call do not appear. Calls of active or inactive are those of the source. Calls follow the shape of the dose curve; as a rule, active = well fitted cell-killing curve with a large enough effect; inconclusive = small, poorly fitted or top-dose-only effect, or effect the other way; inactive = flat fitted curve, though single readings scatter.

compound	activity change, negative = cytotoxicity
O=C(CCO[C@@H]1O[C@H](CO)[C@@H](O)[C@H](O)[C@H]1O)c1ccc(O)cc1	inactive
CC1(C)CC[C@]2(C(=O)O)CC[C@]3(C)C(=CCC4[C@@]5(C)C[C@H](O)[C@H](O[C@@H]6OC[C@H](O)[C@H](O)[C@H]6O)[C@@](C)(CO)C5CC[C@]43C)[C@@H]2C1 (some centres undefined)	inactive
CC1=C2CC3OC3(C)CCC3OC3(C)CC2OC1=O (centres undefined)	inactive
CN1CC[C@@H](NC(=O)Nc2ccc(C#N)cc2)C[C@@H]1c1nc2ccccc2[nH]1	inactive
C/C=C/C1=CC2=CC(=O)C(C)(O)C(OC(=O)c3c(C)cc(O)cc3O)C2CO1 (centres undefined)	inactive
CCOC(=O)c1c(C)nn(-c2cccc([N+](=O)[O-])c2)c1C	inactive
CC1(CO)CC[C@]2(C(=O)O[C@@H]3O[C@H](CO)[C@@H](O)[C@H](O)[C@H]3O)CC[C@]3(C)C(=CCC4[C@@]5(C)CC[C@H](O[C@@H]6O[C@H](C(=O)O)[C@@H](O)[C@H](O)[C@H]6O)C(C)(C)C5CC[C@]43C)C2C1 (some centres undefined)	13% [at 11.6 µM] (inactive)
CC(=O)OC[C@@]12[C@H](O)C[C@@H](C)[C@]3(C[C@@H](c4ccoc4)OC3=O)[C@H]1C[C@H](O)C[C@]21CO1	inactive
Cc1[nH]cnc1C1CCN(c2nc3cccc4c3n2CCC4=O)CC1	inactive
NC1CCC(N[C@@H]2C[C@H]2c2ccccc2)CC1 (some centres undefined)	inactive
CC12CCC3c4ccc(O)cc4CCC3C1CCC2OC1OC(C(=O)O)C(O)C(O)C1O (centres undefined)	inactive
C=C(C)[C@@H](C)[C@H]1O[C@]23C[C@]4(CO2)C(CCC2[C@@]5(C)CC[C@H](O[C@@H]6OC[C@H](O)[C@H](O[C@@H]7O[C@H](CO)[C@@H](O)[C@H](O)[C@H]7O)[C@H]6O[C@@H]6O[C@@H](CO)[C@H](O)[C@H]6O)C(C)(C)C5CC[C@]24C)C3[C@@](C)(O)[C@@H]1OC(C)=O (some centres undefined)	6.78% [at 11.6 µM] (inactive)
CCC(=O)NS(=O)(=O)c1ccc(-c2c(-c3ccccc3)noc2C)cc1	inactive
C/C1=C\C[C@H](O[C@@H]2O[C@H](CO)[C@@H](O)[C@H](O)[C@H]2O)/C(C)=C/[C@H]2OC(=O)[C@H](C)[C@@H]2CC1	inactive
C=C(C)[C@H]1C[C@@H](O)C(=C)CC[C@@H](O)C(=C)[C@@H](O)C1	inactive
COc1c(OC2OC(CO)C(O)C(O)C2O)ccc(O)c1C(=O)OCc1ccccc1O[C@@H]1O[C@H](CO)[C@@H](O)[C@H](O)[C@H]1O (some centres undefined)	inactive
COC(=O)C1(Cc2ccc(O)cc2)OC(=O)C(OC)=C1c1ccc(O)cc1 (centres undefined)	inactive
C=C1CCC(OC(C)=O)C2(C)CC3(O)OC(=O)C(C)=C3CC12 (centres undefined)	inactive
C[C@@H]1CC[C@]2(C(=O)O[C@@H]3O[C@H](CO)[C@@H](O)[C@H](O)[C@H]3O)CC[C@]3(C)C(=CCC4[C@@]5(C)C[C@@H](O)[C@H](O)C(C)(C)C5CC[C@]43C)C2[C@]1(C)O (some centres undefined)	inactive
CC(C)CC(=O)OC[C@H]1O[C@@](COC(=O)CC(C)C)(O[C@H]2O[C@H](CO)[C@@H](O)[C@H](O)[C@H]2O)[C@@H](OC(=O)CC(C)C)[C@@H]1OC(=O)CC(C)C	inactive
CNC(=O)c1ccc2cc([C@@]3(O)CCn4cncc43)ccc2c1	inactive
C=C1CCC2C(C)(C(=O)O)CC(O)CC2(C)C1CC/C(C)=C/C(=O)O (centres undefined)	inactive
CC1(C)CC2C3=CCC4C5(C)CCC(OC6OC(CO)C(O)C(OC7OC(CO)C(O)C(OC8OC(CO)C(O)C(OC9OC(COC%10OC(CO)C(O)C(O)C%10O)C(O)C(O)C9O)C8O)C7O)C6O)C(C)(C)C5CCC4(C)C3(C)CCC2(C(=O)O)CC1O (centres undefined)	0% [at 6.55 µM] (inactive)
CC(C)[C@@H](C)/C=C/[C@@H](C)[C@H]1CC[C@H]2C3=CC=C4C[C@@H](O)CC[C@]4(C)[C@H]3CC[C@]12C	inactive
C=C1C2(CCC(=O)OC2(C)C)CC(OC(=O)/C(C)=C/C)C2(C)C13OC14C(=O)OC(C)(C(=O)C12C(=O)OC4C)C3OC(C)=O (centres undefined)	inactive
CC(C)c1cc2c(c(O)c1O[C@@H]1O[C@H](CO)[C@@H](O)[C@H](O)[C@H]1O)CC1(O)CCC(O)C(C)(C)C1CC2 (some centres undefined)	inactive
CC1(C)C(O)CCC2(C)C1C(O)C=C1COC(=O)C12O (centres undefined)	inactive
CC1CCC2(C)C(CC(O)C(O)C23CO3)C1(C)CCC1=CC(O)OC1=O (centres undefined)	inactive
CCC[C@@H]1C[C@@H](C(=O)N[C@@H]([C@H]2O[C@H](SC)[C@H](O)[C@@H](O)[C@@H]2O)[C@@H](C)O)N(C)C1	inactive

* * *

Tested on: Zika virus NS2B-NS3 protease (linked construct)
assay-explanation: Primary screen NINDS Rhodamine qHTS for Zika virus inhibitors (AID 1347160); also: nearly all actives have a fitted effect of over 55% in size
run-conditions: purified NS2B-NS3 protease, Rhodamine110 substrate fluorescence; series mostly up to 57.1 µM
Records with an inconclusive call do not appear. Calls of active or inactive are those of the source. The call rests on the fitted dose curve; in most records, active means well fitted inhibition curve with a large enough effect; inconclusive means small, poorly fitted or top-dose-only effect; inactive means no such curve, though single readings can be large or run the other way.
Outcome codes: active, inactive

compound	label
O=C(/C=C/c1ccc(O)cc1)OCC1=CC2OC(=O)C3=CO[C@@H](O[C@@H]4O[C@H](CO)[C@@H](O)[C@H](O)[C@H]4O)[C@H]1[C@@H]32 (some centres not stated)	inactive
CC1(C)CC[C@]2(C(=O)O)CC[C@]3(C)C(=CCC4[C@@]5(C)CCC(O[C@@H]6OC[C@H](O)[C@H](O)[C@H]6O[C@@H]6O[C@H](CO)[C@@H](O)[C@H](O)[C@H]6O)[C@@](C)(CO)C5CC[C@]43C)[C@@H]2C1 (some centres not stated)	inactive
O=C(O)c1cc(O)c2cccc(O)c2c1O[C@@H]1O[C@H](CO)[C@@H](O)[C@H](O)[C@H]1O	active
O=C(/C=C/c1ccccc1)OCC1=CC[C@@H]2C(C(=O)O)=CO[C@@H](O[C@@H]3O[C@H](CO)[C@@H](O)[C@H](O)[C@H]3O)[C@H]12	inactive
CC1=CC2(O)/C=C/C(C)(O)CC(O)/C=C/C(=O)OC23C(=O)NC(CC(C)C)C3C1C (configuration not stated)	inactive
COC(=O)CC[C@@H](C)[C@H]1CC[C@H]2[C@@H]3CC(=O)[C@H]4C[C@H](OC(C)=O)CC[C@]4(C)[C@H]3CC[C@]12C	inactive
C=C(C)C(=O)O[C@H]1C[C@@](C)(OC(C)=O)[C@@]2(O)CC[C@@](C)(O)[C@H](OC(C)=O)[C@@]23OC(=O)C(COC)=C13	inactive
O=C(/C=C/c1ccc(O)cc1)O[C@H]1[C@@H]2C=CO[C@@H](O[C@@H]3O[C@H](CO)[C@@H](O)[C@H](O)[C@H]3O)[C@@H]2[C@@]2(CO)O[C@@H]12	inactive
CC(=O)O[C@H]1C[C@@H]2[C@]3(CC[C@]4(C)[C@@H](C5(C)CCC(C(C)(C)O)O5)[C@@H](O)C[C@@]24C)C[C@@]32CC[C@H](O[C@@H]3OC[C@@H](O)[C@H](O)[C@H]3O)C(C)(C)[C@H]12 (some centres not stated)	inactive
CCn1nnnc1NCc1ccc(C(C)C)cc1	inactive
C=C1CC2C3(C)C(OC(C)=O)CC(=O)OC(C)(C)C3C(O)C(OC(C)=O)C2(C)C2C(=O)OC(C)C(=O)C12C (configuration not stated)	inactive
CC(=O)O[C@@H]1[C@H](O[C@@H]2OC[C@](O)(CO)[C@H]2O)[C@@H](O[C@@H]2O[C@@H](C)[C@H](O)[C@@H](O)[C@H]2O)[C@H](OC(=O)[C@]23CCC(C)(C)C[C@H]2C2=CCC4[C@@]5(C)C[C@H](O)[C@H](O[C@@H]6O[C@H](C(=O)O)[C@@H](O)[C@H](O)[C@H]6O)[C@@](C)(C(=O)O)C5CC[C@@]4(C)[C@]2(C)CC3)O[C@@H]1C (some centres not stated)	inactive

* * *

measured-on: Phospholipid hydroperoxide glutathione peroxidase GPX4 (Homo sapiens)
assay-explanation: Primary qHTS Assay for Inhibitors of Recombinant Selenoprotein Glutathione Peroxidase 4 (GPX4) (AID 1845192); also: % is scaled to controls: 0 for no effect and ±100 for the full control effect; nearly all actives have a fitted effect of over 65% in size
run-conditions: recombinant GPX4, GR-coupled NADPH fluorescence, 15 min; series mostly up to 50 µM
Inconclusive results are not listed. Calls of active or inactive are those of the source. The call rests on the fitted dose curve; in most records, active means well fitted inhibition curve with a large enough effect; inconclusive means small, poorly fitted or top-dose-only effect; inactive means flat fitted curve, though single readings scatter.
metric-name: activity change, negative = inhibition

> print(dat)
                                   compound    result
1  CC(C)(O)CNc1nc(Nc2ccnc(C(F)(F)F)c2)nc(-c2cccc(C(F)(F)F)n2)n1  inactive
2  C=C1CCC2(OC1)OC1CC3C4CC=C5CC(O)CC(O[C@@H]6OC[C@@H](O)[C@H](O)[C@H]6O)C5(C)C4CCC3(C)C1(O)C2C (stereo not given in full)  inactive
3  C=CC1(C)CC(O)C2(CCC3C(C)(C(=O)O)CCCC3(C)C2=O)C1 (stereo not given)  inactive
4  C/C=C/C=C/C(CC(=O)O)Nc1ccc(C=O)cc1 (stereo not given)  inactive
5  COc1cc(/C=C/CO)ccc1O[C@@H]1O[C@H](CO)[C@@H](O)[C@H](O)[C@H]1O  inactive
